# TESTED SYSTEM: USP7 MATH/ TRAF (human)
# MEASUREMENT PROTOCOL: fluorescence polarisation; displacement: unlabelled peptide titrated onto a complex of FITC-labelled peptide (10 nM) and protein domain (1-2x KD); 50 mM sodium phosphate buffer pH 7.4 (CASK: plus 100 mM NaCl); KD calculated from IC50; technical triplets
pKd: −log10 of the molar value.
As shown below, each of these binders has a reported pKd value.
REPORTED METRIC: pKd

>>> assay_value("YISSSSTSTMPNSSQSS [CHK2 38-53 wild-type peptide]")
5.51
>>> assay_value("YISSSSTSTMPNSSKSS [CHK2 38-53 Q51K peptide]")
5.33
